Source: patent US9546164B2

Molecular target: hNav1.7 (Homo sapiens (Human))
Sequence (Q15858 other isoform, or with tags, fused parts or gaps): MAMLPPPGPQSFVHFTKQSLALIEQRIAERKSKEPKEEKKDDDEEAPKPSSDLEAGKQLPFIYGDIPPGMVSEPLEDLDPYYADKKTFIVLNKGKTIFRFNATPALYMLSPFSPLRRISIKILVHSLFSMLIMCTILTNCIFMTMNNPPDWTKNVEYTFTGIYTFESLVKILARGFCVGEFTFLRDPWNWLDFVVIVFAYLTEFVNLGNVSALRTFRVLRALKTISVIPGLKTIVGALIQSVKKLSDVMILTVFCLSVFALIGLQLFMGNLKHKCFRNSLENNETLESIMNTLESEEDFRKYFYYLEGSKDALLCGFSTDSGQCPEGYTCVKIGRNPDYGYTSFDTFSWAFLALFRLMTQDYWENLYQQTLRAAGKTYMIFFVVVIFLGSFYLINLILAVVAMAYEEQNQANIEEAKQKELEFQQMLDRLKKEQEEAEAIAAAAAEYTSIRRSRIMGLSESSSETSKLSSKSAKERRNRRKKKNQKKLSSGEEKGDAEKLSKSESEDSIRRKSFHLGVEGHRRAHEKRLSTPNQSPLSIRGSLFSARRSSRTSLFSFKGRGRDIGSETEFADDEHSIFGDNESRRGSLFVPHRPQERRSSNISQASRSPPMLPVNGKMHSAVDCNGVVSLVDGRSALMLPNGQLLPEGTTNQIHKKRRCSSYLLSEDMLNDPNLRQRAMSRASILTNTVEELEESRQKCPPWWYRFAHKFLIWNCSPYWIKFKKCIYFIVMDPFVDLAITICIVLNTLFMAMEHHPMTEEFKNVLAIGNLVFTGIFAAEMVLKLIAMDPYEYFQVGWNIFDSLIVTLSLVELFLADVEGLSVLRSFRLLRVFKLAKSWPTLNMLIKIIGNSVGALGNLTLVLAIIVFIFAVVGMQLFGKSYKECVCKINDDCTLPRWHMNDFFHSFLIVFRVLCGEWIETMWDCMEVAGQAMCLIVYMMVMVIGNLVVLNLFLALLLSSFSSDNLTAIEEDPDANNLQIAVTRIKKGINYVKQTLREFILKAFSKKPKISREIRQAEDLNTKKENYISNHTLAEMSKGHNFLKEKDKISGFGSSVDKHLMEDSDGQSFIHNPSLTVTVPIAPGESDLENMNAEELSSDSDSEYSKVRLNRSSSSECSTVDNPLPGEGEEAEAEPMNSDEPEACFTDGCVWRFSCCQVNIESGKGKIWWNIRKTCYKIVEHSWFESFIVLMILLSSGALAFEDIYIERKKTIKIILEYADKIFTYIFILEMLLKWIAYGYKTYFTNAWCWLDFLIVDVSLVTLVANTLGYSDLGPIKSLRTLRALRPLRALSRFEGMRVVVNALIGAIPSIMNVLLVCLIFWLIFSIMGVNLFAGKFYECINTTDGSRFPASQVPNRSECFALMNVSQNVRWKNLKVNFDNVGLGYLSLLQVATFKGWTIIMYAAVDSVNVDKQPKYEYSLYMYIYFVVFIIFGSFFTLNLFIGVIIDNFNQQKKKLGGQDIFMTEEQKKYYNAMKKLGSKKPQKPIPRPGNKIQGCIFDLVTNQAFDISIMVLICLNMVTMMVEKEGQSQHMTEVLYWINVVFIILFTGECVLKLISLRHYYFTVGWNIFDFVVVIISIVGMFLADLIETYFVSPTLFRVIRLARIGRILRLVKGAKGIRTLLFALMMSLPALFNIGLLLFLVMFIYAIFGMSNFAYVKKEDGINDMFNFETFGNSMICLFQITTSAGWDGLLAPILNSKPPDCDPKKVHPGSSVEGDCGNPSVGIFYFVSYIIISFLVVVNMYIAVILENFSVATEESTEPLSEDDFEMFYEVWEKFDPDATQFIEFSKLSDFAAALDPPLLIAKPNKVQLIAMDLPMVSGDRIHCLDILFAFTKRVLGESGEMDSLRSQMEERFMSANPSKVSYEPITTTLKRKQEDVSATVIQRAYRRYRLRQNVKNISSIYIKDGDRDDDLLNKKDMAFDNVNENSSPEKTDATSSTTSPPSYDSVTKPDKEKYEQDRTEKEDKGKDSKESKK
Sequence (Q07699 19-218 partner): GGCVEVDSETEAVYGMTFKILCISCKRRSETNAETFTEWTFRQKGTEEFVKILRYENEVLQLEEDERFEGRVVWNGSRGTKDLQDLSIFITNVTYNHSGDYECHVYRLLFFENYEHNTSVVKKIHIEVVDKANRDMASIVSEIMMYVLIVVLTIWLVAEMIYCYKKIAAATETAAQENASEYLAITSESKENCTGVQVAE
Assay: Tritiated sulfonamide competitive binding to membranes from cells expressing hNav1.7 and the β1 subunit;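 also: Filter-bound radioactivity counted by liquid scintillation, nonspecific binding defined with excess unlabelled ligand, IC50 fitted to percent inhibition of specific binding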
Details: read-out: Ligand Binding Assay; 100 pM [3H]compound, membranes with hNav1.7 and β1 subunit, 18 h, room temperature
Reported Metric: IC50 (nM)
Hi! Could you send only the number? It should be in nM, unit omitted.

The measured IC50 associated with C[C@H]1CC[C@@H](Oc2cc(F)c(C(=O)NS(C)(=O)=O)cc2C2CC2)CN1Cc1ccc(F)cc1Cl [Example 324] reads 2.7

New cases:
The measured IC50 associated with CCS(=O)(=O)NC(=O)c1cc(C2CC2)c(OCC2CCN([C@H](c3cc(Cl)cc(Cl)c3)C(C)(C)OC)CC2)cc1F (single isomer, unassigned) [Example 207] reads 1.7

The measured IC50 associated with CC1(COc2cc(F)c(C(=O)NS(C)(=O)=O)cc2C2CC2)CCN(Cc2cc(Cl)ccc2C(F)(F)F)CC1 [Example 122] reads 2.4
